- System: LOX IMVI melanoma
- Assay procedure: NCI-60 one-dose screen, 48 h (100 = growth as untreated, 0 = no growth, -100 = all killed)
- Condition parameters: 10 µM unless noted
- Method: Growth inhibition of the LOX IMVI human tumor cell line is measured as a screen for anti-cancer activity. Cells are grown in 96 well plates and exposed to the test compound for 48 hours. Compounds are tested at a single concentration, which is 10^-5 M for most compounds. The reported endpoint is percent growth (GI% or GIPRCNT), where numbers from 0 - 100% represent growth inhibition, and numbers from -100% - 0 represent cell death. For example, a value of 40 represents 60% growth inhibition. […]
This is part of a sample that, as a whole, favours compounds with a hit. Of some 83,000 tested, about 20% had one in any assay.
Decide using growth: a value greater than or equal to 90% is t, a smaller one is f.

>>> assigned_category("COc1cc(-c2csc(NC(=O)Nc3ccc(Cl)cc3)n2)cc(OC)c1OC")
"f"
>>> assigned_category("COc1ccc2nc(-c3ccc(OC)c(OC)c3)cc(-c3nnc(SCC(=O)Nc4ccc(C(C)=O)cc4)o3)c2c1")
"t"
>>> assigned_category("C=C1C(=O)O[C@H]2[C@H]1CC/C(COC(=O)NCC(=O)Nc1ccc(OC)c(C(N)=O)c1O)=C\\CC[C@@]1(C)O[C@@H]21")
"f"
>>> assigned_category("CCOCc1nc2ccccc2c(=O)[nH]1")
"t"
>>> assigned_category("O=C1Nc2ccccc2C12C=C(c1ccccc1)Nc1c2c(-c2ccccc2)nn1-c1ccccc1 (stereo not drawn)")
"f"
>>> assigned_category("CC(=O)OCC1OC(OC2C(COC(C)=O)OC(OCCC[S-])C(OC(C)=O)C2OC(C)=O)C(OC(C)=O)C(OC(C)=O)C1OC(C)=O.[Au+].c1ccc(CN2[CH-]N(Cc3ccccc3)C(c3ccccc3)=C2c2ccccc2)cc1 (stereo not drawn)")
"f"
>>> assigned_category("COc1cc(NC(=O)c2cc(O)c(C/C=C(\\C)CCC=C(C)C)c(O)c2)cc2c1O[C@]1(C)CC[C@@H](O)C(C)(C)[C@H]1C2")
"f"
>>> assigned_category("COc1ccc2oc(=O)cc(-c3c(C#N)c(N)n4nc(N)c(C#N)c4c3C#N)c2c1")
"t"
>>> assigned_category("O=C(Nc1cc(Br)ccn1)c1cc2cc(Nc3nc(-c4ccccc4)nc4ccccc34)ccc2oc1=O")
"f"
>>> assigned_category("CC(C)(C)c1ccc(O)c(Cc2cc(C(C)(C)C)ccc2O)c1")
"t"
>>> assigned_category("C=C1C(=O)O[C@H]2[C@H]1CC/C(COC(=O)c1cccnc1)=C\\CC[C@@]1(C)O[C@@H]21")
"f"
>>> assigned_category("COc1ccc(NC(=O)c2ccc(Nc3ncnc4[nH]c(C)c(C)c34)cc2)cc1")
"t"
>>> assigned_category("CC(/C=C/c1ccccc1)=N/NC(=O)c1ccncc1")
"t"
>>> assigned_category("C[C@H](Oc1cc(-c2cnn(C3CCNCC3)c2)cnc1N)c1c(Cl)ccc(F)c1Cl")
"f"
>>> assigned_category("Cc1nccc2c3ccc(OCc4cn(-c5ccc(Br)cc5)nn4)cc3n(CC(C)C)c12")
"f"
>>> assigned_category("C#C[C@@]1(O)[C@@H](CO)O[C@@H](n2cc(Cl)c3c(N)ccnc32)[C@@H]1O")
"f"
>>> assigned_category("CCCCCCN1C(=O)CN=C1Nc1ccc2cc3ccc(NC4=NCC(=O)N4CCCCCC)cc3nc2c1")
"f"
